Experiment: qHTS of TDP-43 Inhibitors; further: nearly all actives have a fitted effect of over 50% in size
Details: TDP-43 expressing yeast growth rescue, BacTiter-Glo, 24 h; series mostly up to 46.1 µM
About 7,200 (1.8%) of roughly 410,000 compounds were called active. Inconclusive results (about 7%) are left out. The call rests on the fitted dose curve; in most records, active means well fitted activation curve with a large enough effect; inconclusive means small, poorly fitted or top-dose-only effect, or another doubt; inactive means no such curve, though single readings can be large or run the other way. Many of the other results were omitted from the sample, so actives are more common in it than they were.
Hello, when you answer, please use one of the following outcomes: active, inactive

Worked examples, 4 compounds total:
// query So what was the verdict on N/C(=N\OC(=O)CCn1cccc(C(F)(F)F)c1=O)c1ccc(OC(F)(F)F)cc1 in this test?
// result inactive

// query Assay outcome for CC(C)Oc1c(Br)cc(Br)cc1/C=N/NC(N)=S : what was it?
// result inactive

// query Each compound tested received a call. Report the one for O=C(Cn1c(=O)n(-c2ccc(F)cc2)c(=O)c2sccc21)Nc1cccc(C(F)(F)F)c1 .
// result inactive

// query For CC(=O)c1ccc(OC(=O)N2CCOCC2)cc1 , what call appears in the results of this test?
// result inactive

More entries:
// query Hi team, can someone confirm the assay call for Cc1ccc(N2CCN(c3ccc([N+](=O)[O-])cn3)CC2)c(C)c1 ?
// result inactive

// query Hey, what did the test say about COc1ccc(-c2csc(C(O)c3cccc(Cl)c3)n2)cn1 (stereo not drawn) ?
// result active

// query I would be grateful if you could indicate the recorded call for Cc1cc(C)c(S(=O)(=O)N2CCOCC2)cc1C .
// result inactive

----------
Experiment: qHTS of TDP-43 Inhibitors; further: nearly all actives have a fitted effect of over 50% in size
Conditions: TDP-43 expressing yeast growth rescue, BacTiter-Glo, 24 h; series mostly up to 46.1 µM
From the text: The goal of this project is to identify new chemical probes capable of reversing the toxicity associated with TDP-43 which is associated with frontotemporal lobar degeneration and amyotrophic lateral sclerosis. […] To this end, a miniaturized assay was developed to be screened against the Molecular Libraries Small Molecule Repository (MLSMR) to discover TDP-43 inhibitors. Please note that in the set-up this yeast-based assay compounds that inhibit as TDP-43, have a read-out as activators. […]
Out of some 410,000 compounds screened, about 7,200 (1.8%) were called active. Not shown: some 7% with an inconclusive outcome. Calls follow the shape of the dose curve; as a rule, active = well fitted activation curve with a large enough effect; inconclusive = small, poorly fitted or top-dose-only effect, or another doubt; inactive = no such curve, though single readings can be large or run the other way. Many of the other results were omitted from the sample, so actives are more common in it than they were.
Returns: one label drawn from class 1 = active, class 0 = inactive

// query Hi, sorry to bother you, what did the test record for Cc1nc(NC(=O)c2ccc3c(c2)OCCO3)ccc1Br ?
// result class 1

// query How was CCc1c(-c2ccc(F)cc2)ncn1Cc1cccc(-c2ccccc2)c1 classified in this test?
// result class 1

// query Recorded test outcome, item COc1cc(NC(=O)c2cc(-c3ccc(F)cc3OC(C)C)n[nH]2)cc(OC)c1OC
// result class 1

// query Write down the call the test reported for this compound. Item: O=C(Nc1ccc2oc(-c3ccc(O)c(Br)c3)nc2c1)c1cc2ccccc2o1
// result class 0

// query Could you kindly confirm the outcome this assay logged for CCC(C)NC(=O)CN(C1CCCCC1)S(C)(=O)=O (stereo unspecified) ?
// result class 0

Others:
// query // return assay outcome for CCOc1ccc(NC(=O)c2c(NC(=O)Cc3ccccc3)sc3c2CCCCC3)cc1
// result class 0

// query Just curious, what result did COc1ccccc1Nc1cc(C(=O)NCCCN(C)C2CCCCC2)c2ccccc2n1 get here?
// result class 0

----------
Experiment: qHTS of TDP-43 Inhibitors; further: nearly all actives have a fitted effect of over 50% in size
Conditions: TDP-43 expressing yeast growth rescue, BacTiter-Glo, 24 h; series mostly up to 46.1 µM
The campaign covered roughly 410,000 compounds. About 7,200 (1.8%) were called active. Inconclusive results (about 7%) are left out. Calls come from the whole dose curve; as a rule, active = well fitted activation curve with a large enough effect; inconclusive = small, poorly fitted or top-dose-only effect, or another doubt; inactive = no such curve, though single readings can be large or run the other way. Many of the other results were omitted from the sample, so actives are more common in it than they were.
# valid calls are 1 for active, -1 for inactive; nothing else

Consider the following illustrative entries.
// query In this assay, the call recorded for CCOCCc1nn2c(=O)cc(COC(=O)CNC(=O)c3ccc(C(C)(C)C)cc3)nc2s1 was what?
// result -1

// query Called result for Cc1ccc(CNC(=O)CCC(=O)N2CC(C)Sc3ccccc32)cc1 (configuration not stated)
// result -1

// query Each compound tested received a call. Report the one for COc1ccccc1NC(=O)CCC(=O)N1CC(C)Oc2ccc(C)cc21 (configuration not stated) .
// result -1

More entries:
// query Could you kindly confirm the outcome this assay logged for COCCCNC(=O)c1c(NC(=O)c2cc(=O)c3cc(C)c(C)cc3o2)sc2c1CCCC2 ?
// result -1

----------
Experiment: qHTS of TDP-43 Inhibitors; further: nearly all actives have a fitted effect of over 50% in size
Details: TDP-43 expressing yeast growth rescue, BacTiter-Glo, 24 h; series mostly up to 46.1 µM
The campaign covered roughly 410,000 compounds. About 7,200 (1.8%) were called active. Inconclusive results (about 7%) are left out. The call rests on the fitted dose curve; in most records, active means well fitted activation curve with a large enough effect; inconclusive means small, poorly fitted or top-dose-only effect, or another doubt; inactive means no such curve, though single readings can be large or run the other way. This excerpt belongs to a sample that is enriched for actives.
Output constraint: value belongs to class 1 = active, class 0 = inactive

Take a look at these entries with their results.
// query Status in this test for COc1cccc(CNc2nccn(-c3ccc(OC)c(OC)c3)c2=O)c1 ?
// result class 0

// query Assay result, entry COC(=O)c1ccc(-c2nc3cc(NC(C)=O)ccc3o2)cc1 — outcome?
// result class 0

// query Given COc1ccc(N2CCN(C(=O)c3c(C)oc4nc(C)nc(N5CCCC5)c34)CC2)cc1 , state the outcome it received in this test.
// result class 0

// query // param item: CCOc1cc(/C=N/Nc2cc(C)nc3ccc(C)cc23)ccc1O ; yields the recorded call
// result class 1

// query What is the recorded call for this molecule in the test? CN(Cc1ccccc1)S(=O)(=O)c1ccc(F)c(C(=O)Nc2cccc(Cl)c2Cl)c1
// result class 0

***
// query // param item: CC1(C(=O)NCc2ccc(F)c(F)c2)Cc2c(-c3ccc4c(c3)OCO4)ccnc2O1 (configuration not stated) ; yields the recorded call
// result class 1

// query Which outcome did this test record for the molecule COc1ccccc1-c1cc(C(F)(F)F)nc(S(=O)(=O)CCCC(=O)Nc2ccc(F)cc2F)n1 ?
// result class 1

// query Hi, sorry to bother you, what did the test record for Cc1cccc(N2CCN(C(=O)CCn3c(=O)c4cccn4c4cccnc43)CC2C)c1 (configuration not stated) ?
// result class 0

// query # outcome recorded in this test, key = O=C(COC(=O)/C=C/c1cccc(Cl)c1)NCc1cccs1
// result class 1

// query For CCOc1cc(/C=C2\SC(N3CCCC(C)C3)=NC2=O)ccc1O (configuration not stated) , which call appears in the assay record?
// result class 0

// query Fill in: this test's call for C=CCOc1ccc(/C=N/NC(=O)C(C)Sc2ccccn2)cc1OCC (configuration not stated) is ___
// result class 0

// query Per the assay record, what outcome was assigned to C=CCOc1ccc(/C=C2/C(=O)ON=C2C)cc1OCC ?
// result class 1

// query Write down the call the test reported for this molecule. Item: COc1cc(C(=O)Nc2ccc(OCc3cc(=O)n4ccc(C)cc4n3)cc2)cc(OC)c1OC
// result class 0

----------
Assay: qHTS of TDP-43 Inhibitors; further: nearly all actives have a fitted effect of over 50% in size
Conditions: TDP-43 expressing yeast growth rescue, BacTiter-Glo, 24 h; series mostly up to 46.1 µM
From the text: The goal of this project is to identify new chemical probes capable of reversing the toxicity associated with TDP-43 which is associated with frontotemporal lobar degeneration and amyotrophic lateral sclerosis. […] To this end, a miniaturized assay was developed to be screened against the Molecular Libraries Small Molecule Repository (MLSMR) to discover TDP-43 inhibitors. Please note that in the set-up this yeast-based assay compounds that inhibit as TDP-43, have a read-out as activators. […]
The whole screen tested about 410,000 compounds, of which about 7,200 (1.8%) were called active. Roughly 7% stayed inconclusive and do not appear here. Calls follow the shape of the dose curve; as a rule, active = well fitted activation curve with a large enough effect; inconclusive = small, poorly fitted or top-dose-only effect, or another doubt; inactive = no such curve, though single readings can be large or run the other way. This is one part of a sample in which actives are shown more often than they occur.
In this exercise, the only acceptable responses are active, inactive

// below: answered compounds
// query What is the recorded call for this compound in the test? CC(O)(c1cccc(F)c1)c1nc(-c2ccc3c(c2)OCO3)cs1 (stereo unspecified)
// result inactive

// query Give the logged outcome of this assay for the following compound: Cc1cc(C)cc(NC(=O)CCCc2nc(-c3ccccc3Cl)no2)c1
// result inactive

// query Please state the recorded outcome for this compound: S=c1[nH]nc2c3c4c(sc3ncn12)CCCC4
// result active

More entries:
// query What did this assay record as the result for CN1CCN(c2ccc(CNS(=O)(=O)c3cccc(F)c3)cc2)CC1 ?
// result inactive

// query So what was the verdict on CC(Nc1ccc([N+](=O)[O-])cc1[N+](=O)[O-])c1ccccc1 (stereo unspecified) in this test?
// result active

// query # fetch the recorded call for CC(=O)c1nc2ccccc2n1Cc1ccccc1 here
// result active

// query Recorded test outcome, item CCCCC(CC)CNC(=O)C1CCN(S(=O)(=O)c2cccc3nsnc23)CC1 (stereo unspecified)
// result inactive

// query I would be grateful if you could indicate the recorded call for CCc1cnc2c(c1SCC(=O)N1CCC(C)CC1)c(=O)n(C)c(=O)n2C .
// result inactive

// query Assay result, entry CCn1c(=S)[nH]c2sc3c(c2c1=O)CCCCC3 — outcome?
// result inactive

// query For CC(C)(C)NC(=O)NC(=O)COC(=O)Cc1ccc(Cl)cc1Cl , what call appears in the results of this test?
// result active

// query Hi, do you know how COc1ccc(-c2nn(CC(=O)Nc3ccccc3F)c3c2cnc2ccc(F)cc23)cc1 came out in this test?
// result inactive

// query What classification did CCC(=O)N1c2ccccc2CC1C(=O)N1CCN(c2cccc(OC)c2)CC1 (stereo unspecified) end up with in this test?
// result inactive

// query What did this assay record as the result for CCc1ccc2ncc3c(-c4ccc(C)cc4)nn(CC(=O)NCc4ccccc4)c3c2c1 ?
// result inactive

// query What did this assay record as the result for Cc1cc(C=O)c(C)n1-c1ccc(NC2CCCCC2)c([N+](=O)[O-])c1 ?
// result active

// query Hi, sorry to bother you, what did the test record for CCCOc1ccc(F)cc1-c1cc(C(=O)Nc2ccc(F)c(Cl)c2)[nH]n1 ?
// result active

// query State the result this test recorded for CC(C)(C)NC(=O)NC(=O)COC(=O)Cc1c(F)cccc1Cl .
// result inactive

// query What classification did CC(Nc1ccc(-c2nc(-c3ccco3)no2)cc1[N+](=O)[O-])c1ccccc1 (stereo unspecified) end up with in this test?
// result inactive

// query Please let me know the test result on file for Cc1cccc(-n2c(C)cc(/C=N/NC(N)=S)c2C)c1 .
// result active

// query Which outcome was entered for the compound Cc1ccc(C)c(NC(=O)Cn2ccn(-c3ccc(F)cc3)c(=O)c2=O)c1 in this test?
// result inactive

// query Given CCOC(=O)C1CCN(c2ncnc3c2c(-c2ccccc2)cn3-c2ccc(C)cc2)CC1 , state the outcome it received in this test.
// result inactive

// query What classification did O=C(c1ccccc1)c1ccc(OC(=O)N2CCCC2)cc1 end up with in this test?
// result active

// query Hello, I am checking results. What call was entered for COc1cccc(NC(=O)c2csnn2)c1 ?
// result inactive

// query Recorded test call requested for Cc1ccccc1C(=O)Nc1nnc(S(=O)(=O)N(C)c2ccc(Cl)cc2)s1
// result inactive

// query Recorded test outcome, item Cc1c(CNC2CCCCC2)c(C(=O)O)c(C)n1Cc1cccc(Cl)c1
// result inactive

// query Field: outcome | Entry: COc1cccc(C(NC(C)=O)c2nc(-c3ccccc3OC)cs2)c1 (stereo unspecified)
// result inactive

// query Hi, do you know how Cc1ccccc1-c1csc(C(O)c2cccc(Cl)c2)n1 (stereo unspecified) came out in this test?
// result inactive
